All values here come from patent US10301264B2.

test: in vivo; details: CD-1, mouse, topical or ocular, 5 ug
QUANTITY: half-life (min)
Lab book: enter the figure in min, no units written.

QUERY: Input O=C(Nc1cc(C(F)(F)F)ccc1N1CCCCC1)c1ccncc1 , output reported half-life.
RESULT: 35

----------
assay: Pharmacokinetics in the eye after intravitreal injection (mass spectrometry); assay type: in vivo, mouse; details: mouse, eye tissue; 20 ng intravitreal, 1-48 hours curve fit; read-out: sustained half-life in the eye (converted)
QUANTITY: half-life (h)
Entry rule: numbers only, all in h.

QUERY: State its half-life for this compound: O=C(Nc1cc(C(F)(F)F)ccc1N1CCCCC1)c1ccncc1
RESULT: 22
